Overview of recorded TGI for various compounds
- Test system: RXF 393 renal
- MEASUREMENT DESCRIPTION: NCI tumour cell line growth inhibition, 48 h
MEASURED ATTRIBUTE: TGI (µM)

{"columns": ["COMPOUND", "TARGET ENTITY", "UNIT", "OP", "RECORDED MEASUREMENT"],
 "data": [
  ["COc1cccc(/C=C(\\NC(C)=O)c2nc3ccc(Cl)cc3[nH]2)c1", "RXF 393 renal", "µM", ">", 100],
  ["O=C(NCc1ccccc1)c1cc2ccc(O)c(O)c2cn1", "RXF 393 renal", "µM", "=", 30.5],
  ["COC(=O)CN1Cc2cc(C)cc(c2O)CN(CC(=O)OC)Cc2cc(C)cc(c2O)CN(CC(=O)OC)Cc2cc(C)cc(c2O)C1", "RXF 393 renal", "µM", ">", 75],
  ["CCCc1cn2c(/C=N/N=C(N)N)c(-c3c(OC)ccc(OC)c3[N+](=O)[O-])nc2s1", "RXF 393 renal", "µM", "=", 41.2],
  ["CN(C)CCn1cnc2sc3ccccc3c21", "RXF 393 renal", "µM", ">", 100],
  ["COc1ccc(C2=C(Cl)C(=O)N(c3ccc(OC)cc3OC)C(=O)C2(Cl)Cl)cc1", "RXF 393 renal", "µM", "=", 57],
  ["C[C@]12CCC3c4ccc(O)cc4CC[C@H]3C1CC(=O)NC2=O (some centres not stated)", "RXF 393 renal", "µM", ">", 10]
]}
